assay-conditions: 328.15 K; 101.33 kPa; Liquid; Vibrating tube method
Rule: mass density under 800 kg/m3 gives not fulfilled, otherwise fulfilled.

Example entries and their recorded answers appear below.
CCOC(=O)CC(=O)OCC [diethyl 1,3-propanedioate] = fulfilled
CCCCCCC [heptane] = not fulfilled
CC(C)CO [2-methyl-1-propanol] = not fulfilled

Read the next record carefully.
State whether the measured mass density reaches 800 kg/m3, counting equality as reaching it, for CCOC(C)=O [ethyl acetate]
fulfilled

###

Assign mass density to each entry below.
assay-conditions: 288.15 K; 101.33 kPa; Liquid; Vibrating tube method
One number for each entry, in kg/m3.

Some molecules with known mass density results, for comparison:
CCCCCCC = 688.254
CCCCO = 813.604
CCOC(=O)CC(=O)OCC [diethyl 1,3-propanedioate] = 1060.33
CCOC(C)=O [ethyl acetate] = 906.547
CC(C)CO = 806.121

// switching to the query molecule
# mass density (molecule: CCCCCO ) is 819.154

###

assay-conditions: 298.15 K; 101.33 kPa; Liquid; Vibrating tube method
Label criterion met for high-side mass density (at or above 800 kg/m3) and criterion not met for low-side mass density (below it).

Worked cases, answers included:
CCOC(C)=O [ethyl acetate] = criterion met
CCCCCCC [heptane] = criterion not met

Kindly review the next molecule as well.
Decide: is the reported value of mass density for CCOC(=O)CC(=O)OCC [diethyl 1,3-propanedioate] equal to or greater than 800 kg/m3?
criterion met

###

assay-conditions: 348.15 K; 101.33 kPa; Liquid; Vibrating tube method
Please provide measured mass density for the entries that follow.
Answers are plain numbers, in kg/m3.

Example compounds with recorded mass density:
CCCCO = 765.48
CC(C)CO = 756.435

Respectfully, I request mass density for each entry included below.
1. CCCCCO
2. CCCCCCC
3. CCOC(=O)CC(=O)OCC [diethyl 1,3-propanedioate]
4. CCOC(C)=O [ethyl acetate]

772.873
635.631
995.631
830.622

###

Task for the reader: assign each of the following molecules its reported mass density.
assay-conditions: 313.15 K; 101.33 kPa; Liquid; Vibrating tube method
Numbers only, in kg/m3.

CCCCCCC = 666.893

Below is a list of molecules. For each, state its recorded mass density.
1. CCCCCO
2. CCOC(C)=O [ethyl acetate]
3. CCCCO
4. CCOC(=O)CC(=O)OCC [diethyl 1,3-propanedioate]
5. CC(C)CO

[800.574, 875.812, 794.34, 1033.5, 786.515]

###

Please provide measured mass density for the entries that follow.
assay-conditions: 298.15 K; 101.33 kPa; Liquid; Vibrating tube method
Answers are plain numbers, in kg/m3.

Known mass density results, listed for orientation:
CCCCCO [pentan-1-ol] = 811.8
CCCCO [butan-1-ol] = 805.984

Please find the next compound below.
Entry CC(C)CO [2-methyl-1-propanol] , mass density reported as 798.409

Hey, just so you know, these numbers are from the NIST ThermoML archive (doi:10.1016/j.fluid.2009.11.030).
